target: tau (Homo sapiens); assay: MCE Phenols Library screening, tau biosensor cell seeding assay (AvZ); assay type: cell-based; conditions: Z score, replicate 1
Sequence (P10636 623-695 limits assumed): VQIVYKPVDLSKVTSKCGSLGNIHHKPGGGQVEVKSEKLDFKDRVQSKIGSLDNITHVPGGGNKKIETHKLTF
Property: Z repl 1
// return just the number, without any unit appended

Sample answers from the record:
{"Compound": "CCc1c(Cl)c(O)c(Cl)c(O)c1C(=O)O[C@H]1[C@H](O)[C@H](OC)[C@H](OC/C2=C\\C=C\\C[C@H](O)/C(C)=C/[C@H](CC)[C@@H](O[C@@H]3OC(C)(C)[C@@H](OC(=O)C(C)C)[C@H](O)[C@@H]3O)/C(C)=C/C(C)=C/C[C@@H]([C@@H](C)O)OC2=O)O[C@@H]1C [Fidaxomicin]", "Property": "Z repl 1", "Readout value": 0.356}
{"Compound": "N[C@@H](Cc1c[nH]c2ccc(O)cc12)C(=O)O [L-5-Hydroxytryptophan]", "Property": "Z repl 1", "Readout value": 0.279}

Please look at the following compound next.
Give reported Z repl 1 value for COc1cc(CC(=O)C(=O)O)ccc1O [Vanilpyruvic acid]
0.039

---

molecular target: tau (Homo sapiens); test: MCE Phenols Library screening, tau biosensor cell seeding assay (AvZ); type: cell-based; conditions: puncta, replicate 2
Property: raw data 2
// return just the number, without any unit appended

Sample answers from the record:
{"Molecule": "Oc1cc(O)c2c(c1)O[C@@]1(c3ccc(O)c(O)c3)Oc3cc(O)c4c(c3[C@@H]2[C@H]1O)O[C@H](c1ccc(O)c(O)c1)[C@H](O)C4 [Procyanidin A2]", "raw data 2": 2954.48}
{"Molecule": "C[C@@H]1O[C@@H](OC[C@H]2O[C@@H](Oc3c(-c4ccc(O)cc4)oc4cc(O)cc(O)c4c3=O)[C@H](O[C@@H]3O[C@@H](C)[C@H](O)[C@@H](O)[C@H]3O)[C@@H](O)[C@@H]2O)[C@H](O)[C@H](O)[C@H]1O [Clitorin]", "raw data 2": 2427.91}
{"Molecule": "COc1ccc2cc1Oc1ccc(cc1)C[C@H]1c3cc(c(OC)cc3CCN1C)Oc1c(O)c(OC)cc3c1[C@@H](C2)N(C)CC3 [(R)-Fangchinoline]", "raw data 2": 19703.5}
{"Molecule": "O=C1C=CC(=O)c2c(O)ccc(O)c21 [Naphthazarin]", "raw data 2": 4318.06}
{"Molecule": "O=C(O)[C@H]1O[C@@H](Oc2c(-c3ccc(O)cc3)oc3cc(O)cc(O)c3c2=O)[C@H](O)[C@@H](O)[C@@H]1O [Kaempferol 3-O-?-D-glucuronide]", "raw data 2": 19144.3}
{"Molecule": "O=C(O[C@@H]1Cc2c(O)cc(O)cc2O[C@@H]1c1ccc(O)c(O)c1)c1cc(O)c(O)c(O)c1 [(-)-Epicatechin gallate]", "raw data 2": 8135.9}
{"Molecule": "O=C(O)C(O)Cc1ccc(O)cc1 (stereo not drawn) [Hydroxyphenyllactic acid]", "raw data 2": 16240.5}
{"Molecule": "Oc1cc2cc[nH]c2cc1O [5,6-Dihydroxyindole]", "raw data 2": 2376.21}
{"Molecule": "COc1cc(/C=C/C(=O)O)cc(O)c1O [5-Hydroxyferulic acid]", "raw data 2": 790.19}
{"Molecule": "COc1cc(C(=O)O)cc(O)c1O [3-O-Methylgallic acid]", "raw data 2": 7085.12}

Give reported raw data 2 value for COc1ccc(-c2oc3c(CCC(C)(C)O)c(O)cc(O)c3c(=O)c2O)cc1 [Wushanicaritin]
9188.09

Give reported raw data 2 value for COc1cc(O)c2c(c1)O[C@H](c1cc(O)cc(O)c1)CC2=O [Blumeatin]
4717.73

Give reported raw data 2 value for O=C(O)c1ccc(O)cc1O [2,4-Dihydroxybenzoic acid]
8671.41

Give reported raw data 2 value for OC[C@H]1O[C@@H](Oc2cc(/C=C/c3cc(O)cc(O)c3)ccc2O)[C@H](O)[C@@H](O)[C@@H]1O [Piceatannol 3'-O-glucoside]
17127.3

Give reported raw data 2 value for COc1ccc(C(C)=O)c(O)c1 [Paeonol]
17503.1

Give reported raw data 2 value for O=Cc1c[nH]c2cccc(O)c12 [4-Hydroxy-1H-indole-3-carbaldehyde]
11852.6

Give reported raw data 2 value for CC(Cc1ccc(O)c(O)c1)C(C)Cc1ccc(O)c(O)c1 (stereo not drawn) [Nordihydroguaiaretic acid]
12898.9

Give reported raw data 2 value for CCCCCC/C=C\CCCCCCCCCc1cccc(O)c1C(=O)O [Ginkgolic acid C17:1]
14882.8

Give reported raw data 2 value for Oc1cc(O)c2c(c1)O[C@@]1(c3ccc(O)c(O)c3)Oc3cc(O)c4c(c3[C@@H]2[C@H]1O)O[C@H](c1ccc(O)c(O)c1)[C@@H](O)C4 [Procyanidin A1]
18878.6

Give reported raw data 2 value for O=C(O)C(O)c1ccc(O)cc1 (stereo not drawn) [p-Hydroxymandelic acid]
28613.9

Give reported raw data 2 value for O=C(O)CC(=O)OC[C@H]1O[C@@H](Oc2c(-c3ccc(O)c(O)c3)oc3cc(O)cc(O)c3c2=O)[C@H](O)[C@@H](O)[C@@H]1O
2534.57

---

biological target: tau (Homo sapiens); experiment: MCE Phenols Library screening, tau biosensor cell seeding assay (AvZ); type: cell-based; details: Z score, replicate 2
Property: Z Repl 2

Sample answers from the record:
{"Compound": "Cc1ccc(C(C)C)cc1O [Carvacrol]", "Z Repl 2": 1.419}
{"Compound": "O=C(/C=C/c1ccc(O)cc1)c1c(O)cc(O)cc1O [Naringenin chalcone]", "Z Repl 2": -0.404}
{"Compound": "O=C(c1ccc(O)cc1)c1c(O)cc(O)c([C@@H]2O[C@H](CO)[C@@H](O)[C@H](O)[C@H]2O)c1O [Iriflophenone 3-C-glucoside]", "Z Repl 2": -0.232}
{"Compound": "COc1cc(-c2oc3cc(OC)c(OC)c(O)c3c(=O)c2OC)ccc1O [Chrysosplenetin]", "Z Repl 2": -0.899}

Give reported Z Repl 2 value for O=C(/C=C/c1ccc(O)cc1)C1=C(O)C(O)([C@@H]2O[C@H](CO)[C@@H](O)[C@H](O)[C@H]2O)C(O)=C([C@@H]2O[C@H](CO)[C@@H](O)[C@H](O)[C@H]2O)C1=O (stereo partly drawn) [Hydroxysafflor yellow A]
-0.428

Give reported Z Repl 2 value for COc1ccc(-c2oc3c(CC=C(C)C)c(O[C@@H]4O[C@H](CO)[C@@H](O)[C@H](O)[C@H]4O)cc(O)c3c(=O)c2O[C@@H]2O[C@@H](C)[C@H](O)[C@@H](O)[C@H]2O[C@@H]2O[C@H](CO)[C@@H](O)[C@H](O)[C@H]2O)cc1 [Epimedin A]
-0.744

Give reported Z Repl 2 value for O=C(O)c1cccc(O)c1O [Pyrocatechuic acid]
-0.648

Give reported Z Repl 2 value for COc1cc(O)c2c(c1)O[C@H](c1ccccc1)CC2=O [Pinostrobin]
-0.047

Give reported Z Repl 2 value for OC[C@H]1O[C@@H](Oc2cc3c(O)cc(O)cc3[o+]c2-c2ccc(O)c(O)c2)[C@H](O[C@@H]2OC[C@@H](O)[C@H](O)[C@H]2O)[C@@H](O)[C@@H]1O.[Cl-] [Cyanidin 3-sambubioside (chloride)]
-1.008

---

Measured raw data 1 of individual entries
molecular target: tau (Homo sapiens); experiment: MCE Phenols Library screening, tau biosensor cell seeding assay (AvZ); assay type: cell-based; conditions: puncta, replicate 1
// return just the number, without any unit appended

{"Compound": "Cc1cc(=O)oc2cc(O)c(O)cc12", "raw data 1": 29975.4}

Give reported raw data 1 value for O=C(/C=C/c1ccc(O)cc1)NCCc1c[nH]c2ccc(O)cc12
30331

Give reported raw data 1 value for Cl.NCC(O)c1ccc(O)c(O)c1 (racemic) [DL-Norepinephrine (hydrochloride)]
29267.2

Give reported raw data 1 value for COc1cc2c(CCNC(C)=O)c[nH]c2cc1O [6-Hydroxymelatonin]
30495.8

---

molecular target: tau (Homo sapiens); assay: MCE Phenols Library screening, tau biosensor cell seeding assay (AvZ); assay type: cell-based; details: Z score, replicate 1
Measured Z repl 1 of individual entries
// return just the number, without any unit appended

Sample answers from the record:
{"Compound": "COc1cc2c(=O)c(-c3ccc(O)cc3)coc2cc1O[C@@H]1O[C@H](COC(C)=O)[C@@H](O)[C@H](O)[C@H]1O", "Z repl 1": -0.368}
{"Compound": "O=C1c2c(O)cccc2C([C@@H]2O[C@H](CO)[C@@H](O)[C@H](O)[C@H]2O)c2cc(CO)cc(O)c21 (some centres unmarked) [Aloin]", "Z repl 1": 0.178}
{"Compound": "Oc1cccc2ccccc12", "Z repl 1": 1.606}
{"Compound": "O=c1ccc2cc(O)c(O)cc2o1", "Z repl 1": -0.338}
{"Compound": "O=c1c(O)c(-c2ccc(O[C@@H]3O[C@H](CO)[C@@H](O)[C@H](O)[C@H]3O)c(O)c2)oc2cc(O)cc(O)c12 [Spiraeoside]", "Z repl 1": -1.012}
{"Compound": "O=C(O)Cc1c[nH]c2ccc(O)cc12 [5-Hydroxyindole-3-acetic acid]", "Z repl 1": -0.16}
{"Compound": "Oc1cc(O)c2ccc(-c3ccc(O)c(O)c3)[o+]c2c1.[Cl-] [Luteolinidin (chloride)]", "Z repl 1": -0.952}

Give reported Z repl 1 value for Oc1ccc2c(c1)OCO2
-0.018
